biological target: Fibroblast growth factor receptor 2 (Homo sapiens); assay: Inhibition of His-tagged human recombinant FGFR2 (403 to 822 residues) expressed in baculovirus using Fluorescein-Poly GT as substrate at 100 nM
Test Readout: inhibition (%)
Express your answer in %, writing the number without its unit.

[in] Which inhibition reading was recorded for the compound CC(=O)c1cc2cc(NCc3cc(NC(=O)c4ccc(CN5CCN(C)CC5)cc4)ccc3C)cnc2[nH]1 ?
[out] 5

Further cases:
[in] Return reported inhibition; argument: COC(=O)c1cc2cc(NCc3cc(NC(=O)c4ccc(CN5CCC(N(C)C)C5)c(C(F)(F)F)c4)ccc3C)cnc2[nH]1 (centres undefined)
[out] 75

[in] Bench note: what inhibition did COC(=O)c1cc2cc(NCc3cc(NC(=O)Cc4cccc(C(F)(F)F)c4)ccc3C)cnc2[nH]1 show?
[out] 6

[in] Returns the measured inhibition for the input compound. Input: COC(=O)c1cc2cc(COc3cc(NC(=O)c4ccc(CN5CCN(C)CC5)cc4)ccc3C)cnc2[nH]1
[out] 14

====

biological target: Tyrosine-protein kinase ABL1 (Homo sapiens, UniProt P00519, Y253F); assay: Inhibition of His-tagged full length human recombinant ABL Y253F mutant expressed in baculovirus using Fluorescein-Poly GT as substrate
Test Readout: IC50

[in] # get_value(readout='IC50', item= COC(=O)c1cc2cc(NCc3cc(NC(=O)c4cc(-n5cnc(C)c5)cc(C(F)(F)F)c4)ccc3C)cnc2[nH]1 )
[out] 51 nM

====

biological target: Bcr/Abl fusion protein (Homo sapiens, UniProt P00519)
Test Readout: EC50 (nM)
# value in nM; strip the unit string

[in] Could you share which EC50 value was measured for COC(=O)c1cc2cc(NCc3cc(NC(=O)c4cc(-n5cnc(C)c5)cc(C(F)(F)F)c4)ccc3C)cnc2[nH]1 ?
[out] 0.04

====

// values below are reported inhibition
target: Fibroblast growth factor receptor 2 (Homo sapiens) (UniProt P21802); assay: Inhibition of His-tagged human recombinant FGFR2 (403 to 822 residues) expressed in baculovirus using Fluorescein-Poly GT as substrate at 100 nM
Sequence (P21802 22-821 limits assumed): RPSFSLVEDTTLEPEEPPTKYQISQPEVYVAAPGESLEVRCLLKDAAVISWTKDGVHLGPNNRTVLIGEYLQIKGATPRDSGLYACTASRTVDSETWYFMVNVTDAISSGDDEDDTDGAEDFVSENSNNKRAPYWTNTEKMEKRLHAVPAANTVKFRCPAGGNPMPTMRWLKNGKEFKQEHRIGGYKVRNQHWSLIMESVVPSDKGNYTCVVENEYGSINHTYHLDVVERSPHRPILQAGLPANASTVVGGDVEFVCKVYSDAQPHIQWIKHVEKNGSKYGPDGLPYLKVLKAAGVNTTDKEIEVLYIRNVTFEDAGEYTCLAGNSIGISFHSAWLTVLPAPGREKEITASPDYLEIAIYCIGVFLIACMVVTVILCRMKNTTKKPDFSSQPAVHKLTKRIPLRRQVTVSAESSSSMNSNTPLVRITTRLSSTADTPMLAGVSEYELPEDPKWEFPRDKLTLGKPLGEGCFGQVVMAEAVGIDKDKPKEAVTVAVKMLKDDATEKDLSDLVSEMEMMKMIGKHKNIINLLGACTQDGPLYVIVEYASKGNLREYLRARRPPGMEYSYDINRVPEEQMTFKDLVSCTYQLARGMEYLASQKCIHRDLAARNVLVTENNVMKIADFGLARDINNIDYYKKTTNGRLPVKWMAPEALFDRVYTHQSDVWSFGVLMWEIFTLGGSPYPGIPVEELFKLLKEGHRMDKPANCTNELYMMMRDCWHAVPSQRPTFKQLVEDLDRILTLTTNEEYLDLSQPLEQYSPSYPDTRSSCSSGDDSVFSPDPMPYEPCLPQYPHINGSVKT
Report the figure in % without appending any unit label.

[in] What does the record list as inhibition for COC(=O)c1cc2cc(NCc3cc(NC(=O)c4cccc(OC(F)(F)F)c4)ccc3C)cnc2[nH]1 ?
[out] 8

[in] Report inhibition for CC(=O)c1cc2cc(CCc3cc(NC(=O)c4ccc(CN5CCN(C)CC5)cc4)ccc3C)cnc2[nH]1 please.
[out] 18

[in] For the compound COC(=O)c1cc2cc(/C=C/c3cc(NC(=O)c4ccc(CN5CCN(C)CC5)cc4)ccc3C)cnc2[nH]1 , what inhibition is on record?
[out] 2

---
[in] If you can, please state the reported inhibition value of COC(=O)c1cc2cc(NCc3cc(NC(=O)c4cncc(C)c4)ccc3C)cnc2[nH]1 .
[out] 19

[in] Entry COC(=O)c1cc2cc(NC(=O)c3cc(NC(=O)c4ccc(CN5CCN(C)CC5)cc4)ccc3C)cnc2[nH]1 has what inhibition?
[out] 8

[in] Quick one: inhibition for COC(=O)c1cc2cc(NCc3cc(NC(=O)c4ccc5[nH]ccc5c4)ccc3C)cnc2[nH]1 ?
[out] -4

[in] Fill blank: measured inhibition of the compound CC(=O)c1cc2cc(CCc3cc(NC(=O)c4ccc(CN5CCC(N(C)C)C5)c(C(F)(F)F)c4)ccc3C)cnc2[nH]1 (configuration not stated) is ____.
[out] 81

[in] What inhibition value was documented for this compound, COC(=O)c1cc2cc(NCc3cc(NC(=O)c4ccnc(C(F)(F)F)c4)ccc3C)cnc2[nH]1 ?
[out] -2

[in] Field request: inhibition | item: COC(=O)c1cc2cc(CCc3cc(NC(=O)c4ccc(CN5CCN(C)CC5)cc4)ccc3C)cnc2[nH]1
[out] 35

[in] Which measured inhibition value corresponds to COC(=O)c1cc2cc(NCc3cc(NC(=O)c4ccc(CN5CCN(C)CC5)cc4)ccc3C)cnc2[nH]1 ?
[out] 21

[in] Given COC(=O)c1cc2cc(NCc3cc(NC(=O)c4cccc(C(C)C)c4)ccc3C)cnc2[nH]1 , state its recorded inhibition.
[out] 15

[in] Reported inhibition, compound COC(=O)c1cc2cc(NCc3cc(NC(=O)c4ccccc4OC)ccc3C)cnc2[nH]1 : ____
[out] 12

[in] Would you mind telling me what inhibition value was observed for COC(=O)c1cc2cc(NCc3cc(NC(=O)c4ccc5nn[nH]c5c4)ccc3C)cnc2[nH]1 ?
[out] 4

[in] Param item = Cc1ccc(NC(=O)c2ccc(CN3CCC(N(C)C)C3)c(C(F)(F)F)c2)cc1CNc1cnc2[nH]c(C(=O)O)cc2c1 (configuration not stated) ; retrieve measured inhibition.
[out] 71

[in] Look up inhibition for this compound: COC(=O)c1cc2cc(NCc3cc(NC(=O)c4ccc5c(c4)OCO5)ccc3C)cnc2[nH]1
[out] 3

[in] Look up inhibition for this compound: COC(=O)c1cc2cc(NCc3cc(NC(=O)c4ccc(C(F)(F)F)nc4)ccc3C)cnc2[nH]1
[out] -7

[in] What inhibition value was documented for this compound, COC(=O)c1cc2cc(COc3cc(NC(=O)c4ccc(CN5CCC(N(C)C)C5)c(C(F)(F)F)c4)ccc3C)cnc2[nH]1 (configuration not stated) ?
[out] 69
